Test system: Escherichia coli
Assay: agar plate paper-disc inhibition zone screening
Type: cell-based
Settings: Dose 1.0 mg/ml, read-out: Inhibition Zone Diameter mm (Dose mg/ml) E. Coli
This listing pairs compounds with measured zone of inhibition at 1000 µg/mL.
Give a bare numeral; the unit mm is implied.

As a guide, the following entries are already answered.
CCN(CC)CCNc1ccc2c3c(nn2CCO)-c2ccccc2C(=O)c13
15
CN(C)CCNCCNc1ccc2c3c(nn2CCNCCO)-c2c(O)ccc(O)c2C(=O)c13
15

Shift focus to the following entry.
Query: zone of inhibition at 1000 µg/mL; subject: CCN(CC)CCCCCCCNc1ccc2c3c(nn2CCN(CC)CC)-c2ccccc2C(=O)c13 14
